List of Kd values.
- target.or.test.system: DCAF1 WD40 domain (residues 1077-1390) (Homo sapiens, UniProt Q9Y4B6)
- Construct: DCAF1 WD40 domain (residues 1077-1390)
- Sequence (Q9Y4B6 1077-1390): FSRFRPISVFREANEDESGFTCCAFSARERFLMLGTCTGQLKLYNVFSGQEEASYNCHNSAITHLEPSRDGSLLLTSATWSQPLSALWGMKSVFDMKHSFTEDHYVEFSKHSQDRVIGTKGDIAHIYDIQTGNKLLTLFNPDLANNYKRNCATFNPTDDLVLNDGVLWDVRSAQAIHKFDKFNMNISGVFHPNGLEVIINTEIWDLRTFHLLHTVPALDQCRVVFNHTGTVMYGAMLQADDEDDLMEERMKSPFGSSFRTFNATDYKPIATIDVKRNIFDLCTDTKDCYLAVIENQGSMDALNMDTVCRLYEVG
- experiment.notes: DCAF1 binding assay by SPR (Biacore 8K+), DCAF1-3 KD
- assay.conditions: 25 °C, read-out: DCAF1-3 SPR (KD)

Solved cases below.
1) NC[C@H]1CC[C@H](Nc2cc(N3CCCCC3)ccn2)CN1c1cccc(F)c1 10 to 100 µM
2) O=C(Nc1nc2c(s1)CCCC2)[C@@H]1CCCN(c2cccc(F)c2)C1 > 200 µM
3) C=CC(=O)NCCCCC1CCN(c2ccnc(N[C@@H]3CCCN(c4cccc(F)c4)C3)c2)CC1 10 to 100 µM

# context switch: different molecule, same Kd
Any idea what its Kd is? The molecule is `Cc1cc(F)c(-c2[nH]ncc2C(=O)N[C@@H](CC(N)=O)c2cccc(Cl)c2)c(F)c1`
< 10 µM

----------
List of pKd values.
- target.or.test.system: DCAF1 WD40 domain (residues 1077-1390) (Homo sapiens)
- Construct: DCAF1 WD40 domain (residues 1077-1390)
- experiment.notes: DCAF1 binding assay by SPR (Biacore 8K+), DCAF1-3 KD
- assay.conditions: 25 °C, read-out: DCAF1-3 SPR (KD)
pKd: −log10 of the molar value.

Solved cases below.
compound	target.or.test.system	pKd
COCCOCC(=O)c1[nH]cc(C(=O)N[C@@H](CC(N)=O)c2cccc(Cl)c2)c1-c1ccccc1F [I-556]	DCAF1 WD40 domain (residues 1077-1390) (Homo sapiens)	> 5.00
Fc1cccc(N2CCC[C@@H](n3cnc4nccc(N5CCOCC5)c43)C2)c1 [I-494]	DCAF1 WD40 domain (residues 1077-1390) (Homo sapiens)	< 3.70
COc1ccc(F)cc1N1CCC[C@@H]2[C@H]1CCN2c1cc(N2CCCCC2)ccn1 [I-796]	DCAF1 WD40 domain (residues 1077-1390) (Homo sapiens)	4.00 to 5.00
Fc1cccc(N2CCC[C@@H](Nc3cc([C@@H]4CCCOC4)ccn3)C2)c1 [I-123]	DCAF1 WD40 domain (residues 1077-1390) (Homo sapiens)	< 3.70

Any idea what its pKd is? The compound is O=[N+]([O-])c1ccc(N2CCC[C@@H](n3ccc4c(N5CCCCC5)ccnc43)C2)cc1F [I-917]
> 5.00

----------
- target.or.test.system: DCAF1 WD40 domain (residues 1077-1390) (Homo sapiens, UniProt Q9Y4B6)
- Construct: DCAF1 WD40 domain (residues 1077-1390)
- experiment.notes: DCAF1 binding assay by SPR (Biacore 8K+), DCAF1-3 KD
- assay.conditions: 25 °C, read-out: DCAF1-3 SPR (KD)
pKd: −log10 of the molar value.
property: pKd

Solved cases below.
compound	pKd
O=C1C(Nc2cc(N3CCOCC3)ccn2)CCCN1c1cccc(F)c1 (centres unmarked)	< 3.70
O=C(Nc1ccc(F)c(Cl)c1)C1CCN(c2ccnc(-c3ccccc3)n2)CC1	< 3.70
Cc1c(F)ccc(F)c1-c1c(C(=O)N[C@@H](CC(N)=O)c2cccc(Cl)c2)c[nH]c1C(=O)c1cccc(O)c1	> 5.00
Cc1cccc(N2CCC[C@@H](Nc3cc(N4CCOCC4)ncn3)C2)c1	< 3.70
CC(=O)N1CCN(c2ccnc(N3CC[C@@H]4[C@H]3CCCN4c3cccc(F)c3)c2)CC1	4.00 to 5.00
COc1ccc(N2CCC[C@@H](Nc3cncc(N4CCOCC4)c3)C2)cc1	< 3.70
Fc1cccc(N2CCC[C@@H](Nc3cc([C@H]4CCCOC4)ccn3)C2)c1	< 3.70
Fc1cccc(N2CCC[C@H]3[C@@H]2CCN3c2cc(N3CCOCC3)ccn2)c1	< 3.70
O=C(CC1CN(C(=O)N2CCC=C(F)C2)CCO1)Nc1ccccn1 (centres unmarked)	< 3.70
C=CC(=O)N1CCC[C@@H](Nc2cc(N3CCOCC3)ccn2)C1	< 3.70

Any idea what its pKd is? The compound is `Cc1ccc(-c2[nH]ncc2C(=O)N[C@@H](CC(N)=O)c2cccc(Cl)c2)c(F)c1`
> 5.00

Any idea what its pKd is? The compound is `Cc1ccc(Cl)cc1[C@H](CC(N)=O)NC(=O)c1cn[nH]c1-c1ccccc1F`
> 5.00

Any idea what its pKd is? The compound is `C[C@H]1[C@@H](O)CCCN1c1ccnc(N2CC[C@@H]3[C@H]2CCCN3c2cccc(F)c2)c1`
> 5.00

Any idea what its pKd is? The compound is `Cc1c(F)ccc(F)c1-c1cn(C)cc1C(=O)N[C@@H](CC(N)=O)c1cccc(Cl)c1`
> 5.00

Any idea what its pKd is? The compound is `CN(c1ccnc(N[C@@H]2CCCN(c3cccc(F)c3)C2)c1)C1CCCC1`
4.00 to 5.00

Any idea what its pKd is? The compound is `Cc1sc2c(c1C)C(c1ccc(Cl)cc1)=N[C@@H](CC(=O)NCCOCCOCCOCCOCCOCC(=O)c1[nH]cc(C(=O)N[C@@H](CC(=O)N(C)C)c3cccc(Cl)c3)c1-c1c(F)ccc(F)c1C)c1nnc(C)n1-2`
> 5.00

Any idea what its pKd is? The compound is `c1ccc(N2CCC[C@@H](Nc3cc(N4CCOCC4)ccn3)C2)cc1`
4.00 to 5.00

----------
- target.or.test.system: DCAF1 WD40 domain (residues 1077-1390) (Homo sapiens)
- Construct: DCAF1 WD40 domain (residues 1077-1390)
- experiment.notes: DCAF1 binding assay by SPR (Biacore 8K+), DCAF1-3 KD
- assay.conditions: 25 °C, read-out: DCAF1-3 SPR (KD)
List of Kd values.

Solved cases below.
compound	Kd
c1cnc2ccnc(N3CCC[C@@H](Nc4cc(N5CCOCC5)ccn4)C3)c2c1	100 to 200 µM
Fc1cccc(N2CCNC(Cc3cc(N4CCCCC4)ccn3)C2)c1 (centres unmarked)	> 200 µM

# context switch: different compound, same Kd
Any idea what its Kd is? The compound is `Cc1c(F)ccc(F)c1-c1c(C(=O)N[C@@H](CC(N)=O)c2cccc(Cl)c2)c[nH]c1C(=O)COCCOCCOCCOCCOCCOCCN`
< 10 µM

----------
- target.or.test.system: DCAF1 WD40 domain (residues 1077-1390) (Homo sapiens, UniProt Q9Y4B6)
- Construct: DCAF1 WD40 domain (residues 1077-1390)
- experiment.notes: DCAF1 binding assay by SPR (Biacore 8K+), DCAF1-3 KD
- assay.conditions: 25 °C, read-out: DCAF1-3 SPR (KD)
property: Kd

compound	Kd
CCCN1CCN(c2cc(N[C@@H]3CCCN(c4cccc(F)c4)C3)ncn2)CC1 [I-376]	> 200 µM
Fc1cccc(N2CCC[C@H]3[C@@H]2CCN3c2cc(N3CC4CCC(C4)C3)ccn2)c1 [I-605]	10 to 100 µM
Fc1cccc(N2CCC[C@H]3[C@@H]2CCCN3c2cc(N3CCCCC3)ccn2)c1 [I-720]	< 10 µM

Any idea what its Kd is? The compound is OC[C@@H]1CC[C@H](Nc2cc(N3CCCCC3)ccn2)CN1c1cccc(F)c1 [I-1007]
< 10 µM

Any idea what its Kd is? The compound is NCCNc1ccc(C2CCCCC2)cc1N[C@@H]1CCCN(c2cccc(F)c2)C1 [I-979]
10 to 100 µM

Any idea what its Kd is? The compound is N#CCCN(c1cc(N2CCOCC2)ccn1)[C@@H]1CCCN(c2cccc(F)c2)C1 [I-289]
> 200 µM

Any idea what its Kd is? The compound is Oc1ccc(N2CCC[C@@H](Nc3cc(N4CCCCC4)ccn3)C2)cc1 [I-593]
< 10 µM

Any idea what its Kd is? The compound is C=CC(=O)Nc1ccc(-c2n[nH]cc2C(=O)N[C@@H](CC(N)=O)c2cccc(Cl)c2)cc1 [I-474]
> 200 µM

Any idea what its Kd is? The compound is Fc1cccc(N2CCC[C@@H](Nc3nccc(N4CCOCC4)n3)C2)c1 [I-370]
> 200 µM

----------
List of Kd values.
- target.or.test.system: DCAF1 WD40 domain (residues 1077-1390) (Homo sapiens, UniProt Q9Y4B6)
- Construct: DCAF1 WD40 domain (residues 1077-1390)
- experiment.notes: DCAF1 binding assay by SPR (Biacore 8K+), DCAF1-3 KD
- assay.conditions: DCAF1-3 SPR (KD), 25 °C

1) CCCCN(c1nccc(N2CCOCC2)n1)[C@@H]1CCCN(c2cccc(F)c2)C1 > 200 µM
2) Fc1cccc(N2CCC[C@@H](Nc3cc(N4CCOCC4)ccn3)C2)c1 10 to 100 µM
3) NC(=O)OCc1cc(F)cc(N2CCC[C@H]3[C@@H]2CCN3c2cc(N3CC4CC(C4)C3)ccn2)c1 < 10 µM
4) Fc1cccc(N2CCC[C@@H]3[C@H]2CCN3c2cc(N3CCCCC3)ccn2)c1 < 10 µM
5) Cc1c(F)ccc(F)c1-c1c(C(=O)N[C@@H](CC(N)=O)c2cccc(Cl)c2)cn(C)c1C#N < 10 µM

What measured Kd is associated with `Cc1sc2c(c1C)C(c1ccc(Cl)cc1)=N[C@@H](CC(=O)NCCOCCOCCOCCOCCCc1ccc(C(=O)c3[nH]cc(C(=O)N[C@@H](CC(N)=O)c4cccc(Cl)c4)c3-c3c(F)ccc(F)c3C)cc1)c1nnc(C)n1-2` on DCAF1 WD40 domain (residues 1077-1390) (Homo sapiens, UniProt Q9Y4B6)?
< 10 µM
